system name: LILRB5 (human (not printed on the sheet), UniProt O75023)
Sequence (O75023 24-458 limits assumed): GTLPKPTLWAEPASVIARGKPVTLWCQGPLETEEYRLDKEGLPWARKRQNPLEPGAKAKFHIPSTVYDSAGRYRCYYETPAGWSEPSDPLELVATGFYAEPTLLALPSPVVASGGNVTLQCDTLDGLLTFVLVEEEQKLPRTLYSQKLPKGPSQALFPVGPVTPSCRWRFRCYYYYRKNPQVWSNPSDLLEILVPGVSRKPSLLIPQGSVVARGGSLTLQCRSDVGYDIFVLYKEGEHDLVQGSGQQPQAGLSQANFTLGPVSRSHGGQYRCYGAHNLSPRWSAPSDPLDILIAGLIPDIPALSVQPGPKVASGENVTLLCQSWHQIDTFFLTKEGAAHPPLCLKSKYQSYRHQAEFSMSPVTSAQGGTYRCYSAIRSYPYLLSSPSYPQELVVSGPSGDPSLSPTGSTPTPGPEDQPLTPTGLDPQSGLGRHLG
protocol summary: LILR reporter cells on coated antibody, GFP positive (%)
measured metric: binding result

binder | measured metric | value observed
h193 antibody No. 32 (h193-H6 / h193-K2) (antibody, V domains shown) VH: EVQLVESGGGLVQPGGSLRLSCAASGFSLSSSYWISWVRQAPGKGLEWIGSIDSGSVGITYYATSAKGRFTISRDNSKNTLYLQMNSLRAEDTAVYYCARHGDNWALDLWGQGTLVTVSS VL: DLVMTQSPSTLSASVGDRVTITCQASQSINSWLAWYQQKPGKPPKLLIYKASTLASGVSSRFSGSGSGTEFTLTISSLQPDDVATYYCQHGYIRGDLDNVFGGGTKVEIK | binding result | no binding
h193 antibody No. 31 (h193-H6 / h193-K1) (antibody, V domains shown) VH: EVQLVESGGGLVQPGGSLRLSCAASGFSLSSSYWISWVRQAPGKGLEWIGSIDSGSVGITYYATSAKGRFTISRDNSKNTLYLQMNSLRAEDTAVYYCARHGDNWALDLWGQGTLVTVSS VL: DIQMTQSPSTLSASVGDRVTITCQASQSINSWLAWYQQKPGKAPKLLIYKASTLASGVPSRFSGSGSGTEFTLTISSLQPDDFATYYCQHGYIRGDLDNVFGGGTKVEIK | binding result | no binding
h193 antibody No. 24 (h193-H4 / h193-K2) (antibody, V domains shown) VH: EVQLVESGGGLVQPGGSLRLSCAASGFSLSSSYWISWVRQAPGKGLEWVSSIDSGSVGITYYATWAKGRFTISRDNSKNTLYLQMNSLRAEDTAVYYCARHGDNWALDLWGQGTLVTVSS VL: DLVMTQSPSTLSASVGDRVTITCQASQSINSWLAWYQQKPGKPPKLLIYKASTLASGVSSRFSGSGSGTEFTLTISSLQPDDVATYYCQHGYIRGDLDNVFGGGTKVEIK | binding result | no binding

Data credit: patent US20210371518A1
